I'd be grateful if you could share measured metabolised at 0.5 h, 1 µM for these entries.
Assay: Metabolic stability of rat microsomes assessed as compound turnover at 1 uM after 30 mins by LC-MS analysis
Format: ADME, Microsome
Conditions: read-out: Drug metabolism
Answer in %, number only, no unit symbol.

Which metabolised at 0.5 h, 1 µM value is on record for Cc1cc(CN[C@@H](Cc2ccccc2)C(=O)Nc2cc(-c3ccncc3)c[nH]c2=O)no1 ? 95

Could you tell me which metabolised at 0.5 h, 1 µM is on file for O=C(Nc1cc(-c2ccncc2)c[nH]c1=O)[C@H](Cc1ccccc1)NCCC1CCOCC1 ? 80

Name the reported metabolised at 0.5 h, 1 µM value associated with the molecule Cn1ccc(CN[C@@H](Cc2ccccc2)C(=O)Nc2cc(-c3ccncc3)c[nH]c2=O)n1 100

Give its metabolised at 0.5 h, 1 µM value. Item: C[C@@H](N[C@@H](Cc1ccccc1)C(=O)Nc1cc(-c2ccncc2)c[nH]c1=O)c1ccccn1 95

Return reported metabolised at 0.5 h, 1 µM; argument: O=C(Nc1cc(-c2ccncc2)c[nH]c1=O)[C@H](Cc1ccccc1)NCCc1ccccn1 100

For the molecule shown here, O=C(Nc1cc(-c2ccncc2)c[nH]c1=O)[C@H](Cc1ccccc1)NC1(c2ncccn2)CC1 , give the reported metabolised at 0.5 h, 1 µM. 67

# lookup: metabolised at 0.5 h, 1 µM of O=C(Nc1nnc(-c2ccncc2)s1)[C@H](Cc1ccccc1)NCc1cscn1 10

Endpoint output: metabolised at 0.5 h, 1 µM of CC(C)(N[C@@H](Cc1ccccc1)C(=O)Nc1cc(-c2ccncc2)c[nH]c1=O)c1ccccn1 . Value? 100

Field request: metabolised at 0.5 h, 1 µM | item: O=C(Nc1cc(-c2ccncc2)c[nH]c1=O)[C@H](Cc1ccccc1)NC[C@H]1CCCO1 98

Which metabolised at 0.5 h, 1 µM value belongs to O=C(O)Cn1cc(-c2ccncc2)cc(NC(=O)[C@H](Cc2ccccc2)NC2(c3ccccn3)CC2)c1=O ? 12

# input molecule: O=C1CC[C@H](CN[C@@H](Cc2ccccc2)C(=O)Nc2cc(-c3ccncc3)c[nH]c2=O)N1 ; wanted: its metabolised at 0.5 h, 1 µM 67

Please give the measured metabolised at 0.5 h, 1 µM for this molecule: O=C(Nc1cc(-c2ccncc2)c[nH]c1=O)[C@H](Cc1ccccc1)NCc1c[nH]cn1 96

Please look up its metabolised at 0.5 h, 1 µM: Cn1cncc1-c1nnc(NC(=O)[C@H](Cc2ccccc2)NCc2cscn2)s1 35
